# Tested on: U251 CNS
# protocolDescription: NCI-60 one-dose screen, 48 h (100 = growth as untreated, 0 = no growth, -100 = all killed)
# conditionSummary: 10 µM unless noted
This is part of a sample that, as a whole, favours compounds with a hit. Of some 83,000 tested, about 20% had one in any assay.
In this section, each of the molecules is paired with its reported growth.
readoutLabel: growth (%)

molecule: COc1cc(C2=N/C(=C\c3cc4ccccc4nc3Oc3ccccc3)C(=O)N2C(=N)N)cc(OC)c1OC
measuredOn: U251 CNS
readoutLabel: growth
reportedResult: 50.6
--
molecule: Nc1ccc2c(c1)C(=O)C(=O)c1c-2nc2ccccn12
measuredOn: U251 CNS
readoutLabel: growth
reportedResult: 9.14
--
molecule: CCN(CC)c1ccc2c(c1)Oc1nc(N)c(C#N)c(N)c1C2Sc1ccc(OC)cc1 (configuration not stated)
measuredOn: U251 CNS
readoutLabel: growth
reportedResult: -36.4
--
molecule: N#Cc1c(NC(=O)c2cccs2)[n+]([O-])c2cc(C(F)(F)F)ccc2[n+]1[O-]
measuredOn: U251 CNS
readoutLabel: growth
reportedResult: 104
--
molecule: O=C(CN1N=C(c2ccc(F)cc2)CCC1=O)Nc1nc2ccccc2s1
measuredOn: U251 CNS
readoutLabel: growth
reportedResult: 16
--
molecule: C#C[C@@]1(O)[C@@H](CO)O[C@@H](n2cc(F)c3c(N)ncnc32)[C@@H]1O
measuredOn: U251 CNS
readoutLabel: growth
reportedResult: 8.64
--
molecule: CC(C)NS(=O)(=O)c1cccc(-c2ccc3c(=O)n(CCCN)c4c(c3c2)C(=O)c2ccccc2-4)c1
measuredOn: U251 CNS
readoutLabel: growth
reportedResult: 104
--
molecule: COc1ccc(/C=C/C(=O)c2ccc(NC(=O)CSc3nnc(-c4ccc(OC)c(OC)c4)n3-c3ccccc3)cc2)cc1
measuredOn: U251 CNS
readoutLabel: growth
reportedResult: -9.68
--
molecule: COc1cc2c(cc1OCCCOc1cc3c(cc1OC)C(=O)N1CC(F)(F)C[C@H]1C=N3)N=C[C@@H]1CC(F)(F)CN1C2=O
measuredOn: U251 CNS
readoutLabel: growth
reportedResult: 18
--
molecule: COC(=O)[C@]1(C)CCC[C@]2(C)[C@H]3C[C@H]4C(C(C)C)=C[C@]3(CC[C@H]21)[C@@H]1C(=O)N(CCC#N)C(=O)[C@@H]14
measuredOn: U251 CNS
readoutLabel: growth
reportedResult: 87.8
--
molecule: COc1cc(/C=C/C(=O)c2cccs2)ccc1OCc1ccc(Cl)nc1
measuredOn: U251 CNS
readoutLabel: growth
reportedResult: 35.3
--
molecule: CCOC(=O)NCCc1nc2c([nH]1)c(=O)n(C)c(=O)n2C
measuredOn: U251 CNS
readoutLabel: growth
reportedResult: 108

* * *

# Tested on: A549/ATCC NSCLC
# protocolDescription: NCI-60 one-dose screen, 48 h
# conditionSummary: 10 µM unless noted
# Procedure: Growth inhibition of the A549/ATCC human Non-Small Cell Lung tumor cell line is measured as a screen for anti-cancer activity. Cells are grown in 96 well plates and exposed to the test compound for 48 hours. Compounds are tested at a single concentration, which is 10^-5 M for most compounds. The reported endpoint is percent growth (GI% or GIPRCNT), where numbers from 0 - 100% represent growth inhibition, and numbers from -100% - 0 represent cell death. […]
This is part of a sample that, as a whole, favours compounds with a hit. Of some 83,000 tested, about 20% had one in any assay. Calls of active or inactive are those of the source. The calls were made as follows: active = growth percent below 10; inactive = the rest.
Outcomes: active, inactive

compound: Cc1c(Cl)cccc1NC(=O)c1sc2nc3c(cc2c1N)CN(Cc1ccccc1)CC3
group: inactive
--
compound: O=C1NCc2ccc3c(-c4cccc(Cl)c4)c[nH]c3c21
group: inactive
--
compound: C=C(C)[C@@H]1CC[C@]2(C(=O)N3CCN(C)CC3)CC[C@]3(C)[C@H](CC[C@@H]4[C@@]5(C)C/C(=C/c6ccco6)C(=O)C(C)(C)[C@@H]5CC[C@]43C)[C@@H]12
group: inactive
--
compound: CC1CCN(CCCCCOc2ccc3oc4ccccc4c(=O)c3c2)CC1
group: inactive
--
compound: O=C(CCCC(=O)Nc1ccc(-n2nnc3cc(Cl)c(Cl)cc32)cc1)Nc1ccc(-n2nnc3cc(Cl)c(Cl)cc32)cc1
group: inactive
--
compound: COc1ccccc1Nc1nnc(-c2ccc(Cl)cc2)o1
group: inactive
--
compound: CC(C)CSc1nc(Nc2ccccc2)c(C#N)c(-c2ccc(F)cc2)n1
group: inactive
--
compound: O=C(Nc1nc2ccc(C(F)(F)F)cc2s1)c1cc(Cl)ccc1O
group: inactive
--
compound: C=C(C)[C@@H]1CC[C@]2(C(=O)n3ccnc3)CC[C@]3(C)[C@H](CC[C@@H]4[C@@]5(C)CCCNC(C)(C)[C@@H]5CC[C@]43C)[C@@H]12
group: inactive
--
compound: C[C@H](Oc1cc(-c2cnn(C3CCNCC3)c2)cnc1N)c1c(Cl)ccc(F)c1Cl
group: inactive
--
compound: O=C1C(=O)c2c(nc3ccc(C(F)(F)F)cn23)-c2ccccc21
group: active
--
compound: S=C(Nc1ccc(Cl)cc1)c1ccccn1
group: inactive
--
compound: N#Cc1c(-c2ccc(Cl)cc2)cc(-c2cc3ccccc3o2)nc1SCC(=O)c1ccc(Cl)cc1
group: inactive
--
compound: c1cc(CNC23CC4CC(CC(C4)C2)C3)cc(C[N+](Cc2cccc(CNC34CC5CC(CC(C5)C3)C4)c2)(Cc2cccc(CNC34CC5CC(CC(C5)C3)C4)c2)Cc2cccc(CNC34CC5CC(CC(C5)C3)C4)c2)c1 (stereo not drawn)
group: inactive
--
compound: O=C1CC23OC4ON=C(Br)C4C2C(O)c2ccccc2N13 (stereo not drawn)
group: inactive
--
compound: Cc1nc2sc(C(=O)Nc3ccccc3)c(N)c2cc1C(C)O (stereo not drawn)
group: inactive
--
compound: CC[C@H](Nc1ncnc2nc[nH]c12)c1nc2cccc(CC(=O)c3ccc(C(=O)NO)cc3)c2c(=O)n1-c1ccccc1
group: inactive
--
compound: Clc1ccc2c(NCCCNC3CCCCC3)ccnc2c1
group: inactive
--
compound: NC(=O)c1ccc2nc3c(n2c1)C(=O)C(=O)c1ccccc1-3
group: active
--
compound: COc1ccc(C2N(c3cc(OC)c(OC)c(OC)c3)C(=O)C2(F)F)cc1F (stereo not drawn)
group: inactive
--
compound: O=C(CCc1nnc2sc(OCc3ccccc3)nn12)c1nc2ccc([N+](=O)[O-])cc2[nH]1
group: inactive
--
compound: CCOC(=O)c1c(C)nc2c(c1N)/C(=C/c1cccs1)C(=O)N2c1ccc(OC)cc1
group: inactive
--
compound: C#C[C@@]1(O)[C@@H](CO)O[C@@H](n2cc(Cl)c3c(N)ccnc32)[C@@H]1O
group: inactive
